System: cervical carcinoma cells HELA
Assay: In vitro cytotoxic activity (Calcein AM, 72 hours), HELA
Details: Homo sapiens, read-out: Cytotoxicity IC50 HeLa
pIC50: −log10 of the molar value.
Assign class by pIC50: not lower than 5 means rule met; lower than 5 means rule not met.

Consider the worked cases shown below.
Is pIC50 for CCn1cnc2c(NCc3ccccc3N)nc(NC(CO)C(C)C)nc21 (stereo not drawn) at or above 5? rule met

Is pIC50 for CCCn1cnc2c(NCc3ccccc3N)nc(NC(CC)CO)nc21 (stereo not drawn) at or above 5? rule met

Others:
Is pIC50 for CC(C)C(CO)Nc1nc(NCc2ccccc2N)c2ncn(C)c2n1 (stereo not drawn) at or above 5? rule met

Is pIC50 for CCC(CO)Nc1nc(NCc2cc(Cl)ccc2N)c2ncn(C(C)C)c2n1 (stereo not drawn) at or above 5? rule met

----------
Target: CDK2/cyclin E (Homo sapiens)
Experiment: CDK inhibition assay, CDK2/cyclin E
Label key: criterion met means IC50 under 200 nM; criterion not met means IC50 of 200 nM or more.

Consider the worked cases shown below.
Determine whether this compound shows IC50 lower than 200 nM (ties excluded): CCn1cnc2c(NCc3ccccc3N)nc(NC(CO)C(C)C)nc21 (stereo not drawn) criterion met

Determine whether this compound shows IC50 lower than 200 nM (ties excluded): CC(C)C(CO)Nc1nc(NCc2ccccc2N)c2ncn(C(C)C)c2n1 (stereo not drawn) criterion met

Determine whether this compound shows IC50 lower than 200 nM (ties excluded): "CC(C)n1cnc2c(NCc3ccccc3)nc(NCC(C)(C)O)nc21" criterion not met

Determine whether this compound shows IC50 lower than 200 nM (ties excluded): CCC(CO)Nc1nc(NCc2cc(Cl)ccc2N)c2ncn(C(C)C)c2n1 (stereo not drawn) criterion met

Determine whether this compound shows IC50 lower than 200 nM (ties excluded): CCC(CO)Nc1nc(NCc2cc(Cl)ccc2N)c2ncn(Cc3ccccc3)c2n1 (stereo not drawn) criterion not met

Others:
Determine whether this compound shows IC50 lower than 200 nM (ties excluded): CCCn1cnc2c(NCc3ccccc3N)nc(NC(CC)CO)nc21 (stereo not drawn) criterion met

Determine whether this compound shows IC50 lower than 200 nM (ties excluded): CCC(CO)Nc1nc(NCc2ccccc2N)c2ncn(CC)c2n1 (stereo not drawn) criterion met

Determine whether this compound shows IC50 lower than 200 nM (ties excluded): "CC(C)n1cnc2c(NCc3ccccc3N)nc(N[C@H]3CC[C@H](O)CC3)nc21" criterion met

----------
Target: CDK1/cyclin B (Homo sapiens, UniProt P06493)
Sequence (P06493 whole entry, species assumed): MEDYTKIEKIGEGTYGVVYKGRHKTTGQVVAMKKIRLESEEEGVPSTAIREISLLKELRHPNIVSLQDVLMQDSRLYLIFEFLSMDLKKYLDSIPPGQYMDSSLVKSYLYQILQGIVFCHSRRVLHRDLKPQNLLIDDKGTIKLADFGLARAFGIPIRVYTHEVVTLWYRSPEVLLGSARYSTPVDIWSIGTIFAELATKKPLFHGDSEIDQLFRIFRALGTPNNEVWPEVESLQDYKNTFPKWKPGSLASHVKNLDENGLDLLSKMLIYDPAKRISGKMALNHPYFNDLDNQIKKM
Sequence (P14635 whole entry partner, species assumed): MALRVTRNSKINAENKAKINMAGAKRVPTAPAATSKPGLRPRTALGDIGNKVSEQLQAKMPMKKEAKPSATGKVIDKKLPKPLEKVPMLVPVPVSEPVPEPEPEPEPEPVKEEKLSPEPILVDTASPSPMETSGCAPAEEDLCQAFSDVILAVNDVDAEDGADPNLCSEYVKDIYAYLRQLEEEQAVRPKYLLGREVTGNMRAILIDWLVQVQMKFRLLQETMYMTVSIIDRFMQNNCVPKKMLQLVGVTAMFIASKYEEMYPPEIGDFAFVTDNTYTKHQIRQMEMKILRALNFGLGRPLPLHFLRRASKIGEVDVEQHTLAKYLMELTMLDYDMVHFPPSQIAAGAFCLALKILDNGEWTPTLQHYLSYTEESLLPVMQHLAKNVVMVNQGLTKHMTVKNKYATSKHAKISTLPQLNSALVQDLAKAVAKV
Assay: CDK inhibition assay, CDK1/cyclin B
REPORTED ENDPOINT: pIC50
# pIC50: negative log10 of molar concentration; output just the value

Request - read-out pIC50 | tested on CDK1/cyclin B (Homo sapiens, UniProt P06493) | compound CCC(CO)Nc1nc(NCc2cc(Cl)ccc2N)c2ncn(Cc3ccccc3)c2n1 (stereo not drawn) 6.10

Request - read-out pIC50 | tested on CDK1/cyclin B (Homo sapiens, UniProt P06493) | compound Cn1cnc2c(NCc3ccccc3N)nc(NC3CCC(N)CC3)nc21 (stereo not drawn) 6.15

// below: pIC50 requested for another compound
Request - read-out pIC50 | tested on CDK1/cyclin B (Homo sapiens, UniProt P06493) | compound Nc1ccccc1CNc1nc(NC2CCC(N)CC2)nc2c1ncn2Cc1ccccc1 (stereo not drawn) 6.10
